- system.name: T1, human TL1A extracellular domain with N-terminal HIS and FLAG tag (human, UniProt O95150 72-251)
- T1 construct: the whole entry is named
- T1 sequence: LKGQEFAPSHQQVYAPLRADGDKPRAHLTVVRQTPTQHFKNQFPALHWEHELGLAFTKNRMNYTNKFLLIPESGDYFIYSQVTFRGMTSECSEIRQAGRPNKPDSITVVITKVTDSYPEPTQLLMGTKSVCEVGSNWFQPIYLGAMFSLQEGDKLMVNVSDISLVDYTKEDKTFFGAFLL
- experiment.notes: SPR Run 5, Ab from supernatant captured on Protein A, TL1A 5 ug/mL, timepoint 220
measurement.kind: TL1A Binding Level (Late) (RU)
One number for each entry, in RU.

binder	unit.of.measurement	TL1A Binding Level (Late)
320-417 (antibody, human IgG1, name in Kabat numbering, V domains shown, human IgG1, lambda) VH: QVQLVQSGAEVKKPGASVKVSCKASGYTHTSYDINWVRQAPGQGLEWMGWLNPNSGNTGYAQKFQGRVTMTADRSTSTAYMELSSLRSEDTAVYYCAREVPETAAFEYWGQGTLVTVSS VL: QSVLTQPPSVSGAPGQRVTISCTSSSSDIGAGLGVHWYQQLPGTAPKLLIEGYYNRPSGVPDRFSGSKSGTSASLTITGLLPEDEGDYYCQSYDGTLSALFGGGTKLTVLG	RU	8
320-397 (antibody, human IgG1, name in Kabat numbering, V domains shown, human IgG1, lambda) VH: QVQLVQSGAEVKKPGASVKVSCKASGATFTSYDINWVRQAPGQGLEWMGWLNPNSGNTGYAQKFQGRVTMTADRSTSTAYMELSSLRSEDTAVYYCAREVPETAAFEYWGQGTLVTVSS VL: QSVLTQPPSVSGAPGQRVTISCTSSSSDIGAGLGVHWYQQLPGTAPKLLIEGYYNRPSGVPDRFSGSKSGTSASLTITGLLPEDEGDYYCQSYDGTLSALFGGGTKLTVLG	RU	12

Return reported TL1A Binding Level (Late) values for all items listed beneath this line.
1. 320-414 (antibody, human IgG1, name in Kabat numbering, V domains shown, human IgG1, lambda) VH: QVQLVQSGAEVKKPGASVKVSCKASGYTSTSYDINWVRQAPGQGLEWMGWLNPNSGNTGYAQKFQGRVTMTADRSTSTAYMELSSLRSEDTAVYYCAREVPETAAFEYWGQGTLVTVSS VL: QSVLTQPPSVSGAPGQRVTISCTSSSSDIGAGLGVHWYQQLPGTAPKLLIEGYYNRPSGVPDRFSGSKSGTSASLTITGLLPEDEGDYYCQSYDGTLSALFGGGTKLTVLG
2. 320-419 (antibody, human IgG1, name in Kabat numbering, V domains shown, human IgG1, lambda) VH: QVQLVQSGAEVKKPGASVKVSCKASGYTLTSYDINWVRQAPGQGLEWMGWLNPNSGNTGYAQKFQGRVTMTADRSTSTAYMELSSLRSEDTAVYYCAREVPETAAFEYWGQGTLVTVSS VL: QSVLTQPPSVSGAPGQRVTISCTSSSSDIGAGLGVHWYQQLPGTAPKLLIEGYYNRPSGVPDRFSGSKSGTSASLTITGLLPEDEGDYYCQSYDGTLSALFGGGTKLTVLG
3. 320-418 (antibody, human IgG1, name in Kabat numbering, V domains shown, human IgG1, lambda) VH: QVQLVQSGAEVKKPGASVKVSCKASGYTKTSYDINWVRQAPGQGLEWMGWLNPNSGNTGYAQKFQGRVTMTADRSTSTAYMELSSLRSEDTAVYYCAREVPETAAFEYWGQGTLVTVSS VL: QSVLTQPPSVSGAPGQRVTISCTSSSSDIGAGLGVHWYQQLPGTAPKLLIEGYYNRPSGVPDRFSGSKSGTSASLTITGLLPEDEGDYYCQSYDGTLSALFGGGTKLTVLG
4. 320-376 (antibody, human IgG1, name in Kabat numbering, V domains shown, human IgG1, lambda) VH: QVQLVQSGAEVKKPGASVKVSCKASGYTFTSYDINWVRQAPGQGLEWMGWLNPNSGNTGYAQKFQGRVTMTADRSTSTAYMELSSLRSEDTAVYYCAREVPETAAFEYWGQGTLVTVSS VL: QSVLTQPPSVSGAPGQRVTISCTSSSSDIGAGLGVHWYQQLPGTAPKLLIEGYYNRPSGVPDRFSGSKSGTSASLTITGLLPEDEGDYYCQSYDGTLSKLFGGGTKLTVLG
5. 320-383 (antibody, human IgG1, name in Kabat numbering, V domains shown, human IgG1, lambda) VH: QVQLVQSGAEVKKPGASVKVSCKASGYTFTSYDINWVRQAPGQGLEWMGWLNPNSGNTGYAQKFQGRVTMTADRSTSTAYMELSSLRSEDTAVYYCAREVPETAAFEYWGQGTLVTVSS VL: QSVLTQPPSVSGAPGQRVTISCTSSSSDIGAGLGVHWYQQLPGTAPKLLIEGYYNRPSGVPDRFSGSKSGTSASLTITGLLPEDEGDYYCQSYDGTLSADFGGGTKLTVLG

### Response
1. 7
2. 9
3. 9
4. 1
5. 1
